Value source: paper PMC9369007

Measured Parameter: melting point

Specify melting point for S=c1[nH]nc(-c2cc(-c3n[nH]c(=S)n3-c3ccccc3)cc(-c3n[nH]c(=S)n3-c3ccccc3)c2)n1-c1ccccc1 and stop.
229 to 230 °C

Hello, please tell me recorded melting point for this one: c1ccc(Nc2nnc(-c3cc(-c4nnc(Nc5ccccc5)s4)cc(-c4nnc(Nc5ccccc5)s4)c3)s2)cc1
204 to 205 °C

Give reported melting point value for CCNc1nnc(-c2cc(-c3nnc(NCC)s3)cc(-c3nnc(NCC)s3)c2)s1
233 to 234 °C

Note down melting point recorded for S=c1[nH]nc(-c2cc(-c3n[nH]c(=S)n3C3CCCCC3)cc(-c3n[nH]c(=S)n3C3CCCCC3)c2)n1C1CCCCC1
251 to 252 °C

Please supply the value of reported melting point for the item CNc1nnc(-c2cc(-c3nnc(NC)s3)cc(-c3nnc(NC)s3)c2)s1
247 to 248 °C

Report melting point, nothing else, for this compound: Cn1c(-c2cc(-c3n[nH]c(=S)n3C)cc(-c3n[nH]c(=S)n3C)c2)n[nH]c1=S
279 to 281 °C

Assign melting point to the following record: c1c(-c2nnc(NC3CCCCC3)s2)cc(-c2nnc(NC3CCCCC3)s2)cc1-c1nnc(NC2CCCCC2)s1
218 to 219 °C

###

target: LSD1 demethylase (Homo sapiens, UniProt O60341); test: LSD1 demethylase inhibition assay; conditions: LSD1 inhibitory IC50, Table 2; mean ± S.D., at least three tests
Below, each entry is listed alongside its reported IC50.
Just the number please, in µM, no unit attached.

Below are worked cases with known answers.
S=c1[nH]nc(-c2cc(-c3n[nH]c(=S)n3Cc3ccccc3)cc(-c3n[nH]c(=S)n3Cc3ccccc3)c2)n1Cc1ccccc1: 0.074
C=CCNc1nnc(-c2cc(-c3nnc(NCC=C)s3)cc(-c3nnc(NCC=C)s3)c2)s1: 0.046
Cn1c(-c2cc(-c3n[nH]c(=S)n3C)cc(-c3n[nH]c(=S)n3C)c2)n[nH]c1=S: 1.51
C=CCn1c(-c2cc(-c3n[nH]c(=S)n3CC=C)cc(-c3n[nH]c(=S)n3CC=C)c2)n[nH]c1=S: 0.32
CNc1nnc(-c2cc(-c3nnc(NC)s3)cc(-c3nnc(NC)s3)c2)s1: 0.45

Please give measured IC50 of the following entry: S=c1[nH]nc(-c2cc(-c3n[nH]c(=S)n3-c3ccccc3)cc(-c3n[nH]c(=S)n3-c3ccccc3)c2)n1-c1ccccc1
0.065

For the compound S=c1[nH]nc(-c2cc(-c3n[nH]c(=S)n3C3CCCCC3)cc(-c3n[nH]c(=S)n3C3CCCCC3)c2)n1C1CCCCC1 , give its measured IC50 value.
0.137

Please report the measured IC50 for CCn1c(-c2cc(-c3n[nH]c(=S)n3CC)cc(-c3n[nH]c(=S)n3CC)c2)n[nH]c1=S
0.17

Output measured IC50 for this item: c1ccc(Nc2nnc(-c3cc(-c4nnc(Nc5ccccc5)s4)cc(-c4nnc(Nc5ccccc5)s4)c3)s2)cc1
0.21

Query IC50 for CCNc1nnc(-c2cc(-c3nnc(NCC)s3)cc(-c3nnc(NCC)s3)c2)s1
0.14

Return the recorded IC50 value; entry: c1c(-c2nnc(NC3CCCCC3)s2)cc(-c2nnc(NC3CCCCC3)s2)cc1-c1nnc(NC2CCCCC2)s1
0.311
